Reported Inhibition is given for each of the following compounds.
- Test system: Plasmodium falciparum
- Assay Name: GSK_TCMDC: Inhibition of Plasmodium falciparum 3D7 in whole red blood cells, using parasite LDH activity as an index of growth. Test compounds present at 2uM
- Type: functional
Recorded Metric: Inhibition (%)

1. COc1ccccc1Cn1ccnc1SCC(=O)Nc1cccc(C(F)(F)F)c1
86
2. Cc1[nH]c(C)c(-c2ccc(-c3ccc(OC(F)(F)F)cc3)cc2)c(=O)c1Cl
98
3. O=C(Nc1cccc(-c2cccc(-c3nc4ccccc4[nH]3)c2)c1)c1ccncc1
99
4. Cl.Oc1ccc2[nH]c(-c3cccs3)nc2c1CN1CCC(O)(c2ccccc2)CC1
93
5. Cc1cc(N/N=C/c2ccccc2[N+](=O)[O-])c2cccc(C)c2n1
99
